- System: CCRF-CEM
- Protocol Summary: Cytotoxicity against human CCRF-CEM cells assessed as growth inhibition at 10 uM after 48 hrs by SRB assay relative to control
- Assay type: functional
- Experimental Parameters: read-out: GI
Result Type: inhibition of growth at 10 µM

Field: example entries. Status: answers known.
{"Smiles": "NCCNc1ccc2cc(-c3nc4ccccc4[nH]3)c(=O)oc2c1", "Result Type": "inhibition of growth at 10 µM", "Result": "< 20%"}
{"Smiles": "O=c1oc2cc(N3CCOCC3)ccc2cc1-c1nc2ccccc2[nH]1", "Result Type": "inhibition of growth at 10 µM", "Result": "< 20%"}
{"Smiles": "O=c1oc2cc(NCCN3CCOCC3)ccc2cc1-c1nc2ccccc2[nH]1", "Result Type": "inhibition of growth at 10 µM", "Result": "< 20%"}

Prompt: # assay system CCRF-CEM: give inhibition of growth at 10 µM of O=c1[nH]cc(F)c(=O)[nH]1
Response: 57.1%

Prompt: # assay system CCRF-CEM: give inhibition of growth at 10 µM of O=c1oc2cc(NCCO)ccc2cc1-c1nc2ccccc2[nH]1
Response: 72.5%

Prompt: # assay system CCRF-CEM: give inhibition of growth at 10 µM of CN1CCN(c2ccc3cc(-c4nc5ccccc5[nH]4)c(=O)oc3c2)CC1
Response: 26.5%

Prompt: # assay system CCRF-CEM: give inhibition of growth at 10 µM of O=c1oc2cc(Br)ccc2cc1-c1nc2ccccc2[nH]1
Response: < 20%

###

- System: MDA-MB-231
- Protocol Summary: Cytotoxicity against human MDA-MB-231 cells assessed as growth inhibition at 10 uM after 48 hrs by SRB assay relative to control
- Type: functional
- Experimental Parameters: MDA-MB-231, 48 h, read-out: GI
Result Type: inhibition of growth at 10 µM (%)
Enter your answer as a number in %; do not include the unit.

{"Smiles": "O=c1[nH]cc(F)c(=O)[nH]1", "Tested System": "MDA-MB-231", "inhibition of growth at 10 µM (%)": 78.1}
{"Smiles": "O=c1oc2cc(Br)ccc2cc1-c1nc2ccccc2[nH]1", "Tested System": "MDA-MB-231", "inhibition of growth at 10 µM (%)": 26}
{"Smiles": "NCCNc1ccc2cc(-c3nc4ccccc4[nH]3)c(=O)oc2c1", "Tested System": "MDA-MB-231", "inhibition of growth at 10 µM (%)": 34}

Lab note: next compound to report on.
Prompt: # assay system MDA-MB-231: give inhibition of growth at 10 µM of O=c1oc2cc(NCCO)ccc2cc1-c1nc2ccccc2[nH]1
Response: 58.9

###

- Tested on: M14
- Protocol Summary: Cytotoxicity against human M14 cells assessed as growth inhibition at 10 uM after 48 hrs by SRB assay relative to control
- Type: functional
- Experimental Parameters: M14, 48 h, read-out: GI
Result Type: inhibition of growth at 10 µM

{"Smiles": "O=c1oc2cc(NCCO)ccc2cc1-c1nc2ccccc2[nH]1", "Result": "25.4%"}

Prompt: Give recorded inhibition of growth at 10 µM. NCCNc1ccc2cc(-c3nc4ccccc4[nH]3)c(=O)oc2c1
Response: < 20%

Prompt: Give recorded inhibition of growth at 10 µM. CN1CCN(c2ccc3cc(-c4nc5ccccc5[nH]4)c(=O)oc3c2)CC1
Response: < 20%

Prompt: Give recorded inhibition of growth at 10 µM. O=c1oc2cc(Br)ccc2cc1-c1nc2ccccc2[nH]1
Response: < 20%

Prompt: Give recorded inhibition of growth at 10 µM. O=c1oc2cc(NCCN3CCOCC3)ccc2cc1-c1nc2ccccc2[nH]1
Response: < 20%

Prompt: Give recorded inhibition of growth at 10 µM. O=c1oc2cc(N3CCOCC3)ccc2cc1-c1nc2ccccc2[nH]1
Response: < 20%

The values you see were collected from ChEMBL document CHEMBL2396528.
